Target: Short transient receptor potential channel 6 (Mus musculus) (UniProt Q61143)
Sequence (Q61143 whole entry, looked up): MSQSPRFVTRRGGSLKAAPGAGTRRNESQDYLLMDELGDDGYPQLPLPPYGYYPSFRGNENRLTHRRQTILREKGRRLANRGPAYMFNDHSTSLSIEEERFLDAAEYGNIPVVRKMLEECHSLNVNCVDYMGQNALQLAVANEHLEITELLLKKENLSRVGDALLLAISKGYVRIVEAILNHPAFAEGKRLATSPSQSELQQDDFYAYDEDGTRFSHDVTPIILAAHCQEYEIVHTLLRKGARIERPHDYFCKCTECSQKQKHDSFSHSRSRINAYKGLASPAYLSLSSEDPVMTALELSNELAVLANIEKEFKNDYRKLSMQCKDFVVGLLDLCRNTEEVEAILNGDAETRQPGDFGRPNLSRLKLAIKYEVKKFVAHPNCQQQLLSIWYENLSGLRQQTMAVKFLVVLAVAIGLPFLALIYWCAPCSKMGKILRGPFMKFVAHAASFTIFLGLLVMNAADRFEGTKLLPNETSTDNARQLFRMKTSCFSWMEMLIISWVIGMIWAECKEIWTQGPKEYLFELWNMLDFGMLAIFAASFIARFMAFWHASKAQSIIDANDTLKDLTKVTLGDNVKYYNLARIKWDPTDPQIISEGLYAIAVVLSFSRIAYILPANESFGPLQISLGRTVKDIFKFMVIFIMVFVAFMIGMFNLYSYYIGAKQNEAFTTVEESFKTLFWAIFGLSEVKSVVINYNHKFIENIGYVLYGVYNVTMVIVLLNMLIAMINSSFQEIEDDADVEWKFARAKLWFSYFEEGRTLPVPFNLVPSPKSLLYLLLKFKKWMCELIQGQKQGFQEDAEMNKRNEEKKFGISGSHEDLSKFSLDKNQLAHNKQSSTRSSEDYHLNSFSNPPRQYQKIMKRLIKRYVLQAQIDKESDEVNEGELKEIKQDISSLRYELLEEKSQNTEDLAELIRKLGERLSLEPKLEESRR
Experiment: mouse TRPC6 channel inhibitors, primary screen, cell-based, HEK293, membrane potential dye (AID 2553)
Details: ACh-evoked depolarization, at 10 µM
Screen size: about 310,000 compounds; about 3,300 (1.1%) were called active.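 The calls were made as follows: active = B-score under library mean minus 3 SD, initial fluorescence not abnormally high, positive integrated signal ratio; inactive = the rest.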 The sample as a whole holds a higher share of actives than the screen did.
Returns: one label drawn from yes = active, no = inactive

O=C(COC(=O)CC1CC2CCC1C2)NC(=O)NC1CCCC1 (centres undefined)	no

Which result was noted for this compound in the test: CCOc1cccc(/C=N/NC(=S)NCCN2CCOCC2)c1O
no

Which result was noted for this compound in the test: CCCCC(=O)Nc1ccc(C(=O)NCCCn2ccnc2)cc1
no

Which result was noted for this compound in the test: CCc1nc(NCCO)c(C#N)c2c1CCCC2
no

Which result was noted for this compound in the test: Cc1ccccc1N1C(=O)C2ON(c3ccccc3)C(c3ccncc3)C2C1=O (centres undefined)
no

Which result was noted for this compound in the test: COc1ccc(NC(=O)CSc2nc(SC)ns2)c(OC)c1
no

Which result was noted for this compound in the test: CC(=O)c1cc(NC(=O)c2ccccc2)c(=O)oc1/C=C/N(C)C
yes

Which result was noted for this compound in the test: O=C(CN1C(=O)S/C(=C\c2ccccc2Cl)C1=O)NC1C=CS(=O)(=O)C1 (centres undefined)
no

---

Molecular target: Short transient receptor potential channel 6 (Mus musculus) (UniProt Q61143)
Test: mouse TRPC6 channel inhibitors, primary screen, cell-based, HEK293, membrane potential dye (AID 2553)
Settings: ACh-evoked depolarization, at 10 µM
The whole screen tested about 310,000 compounds, of which about 3,300 (1.1%) were called active.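 How the source made its calls: active means B-score under library mean minus 3 SD, initial fluorescence not abnormally high, positive integrated signal ratio; inactive means the rest.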 Shown is part of a subset that was picked to be rich in actives.
Returns: one label drawn from active, inactive

CCc1nnc(NC(=O)CSc2nnnn2-c2cccc(C(C)=O)c2)s1	inactive
C/C(=N\Nc1nc2ccccc2[nH]1)c1cccs1	active
CCN1CCN(c2c(Cl)cccc2NC(=O)c2ccc(Br)o2)CC1	active

Which result was noted for this compound in the test: CC(=O)NS(=O)(=O)c1ccc2c(c1)Cc1cc(S(=O)(=O)NC(C)=O)ccc1-2
inactive

Which result was noted for this compound in the test: O=C(Nc1ccccc1-c1nc2ccccc2[nH]c1=O)c1cccs1
inactive

Which result was noted for this compound in the test: Cc1ccc(F)cc1NC(=O)N1CCCN(c2ccc(C(F)(F)F)cn2)CC1
inactive

Which result was noted for this compound in the test: O=C(O)C1CCCCC1C(=O)N1CCN(S(=O)(=O)c2ccc(F)cc2)CC1 (stereo unspecified)
inactive

Which result was noted for this compound in the test: C/C(=N\Nc1ncc(Cl)cc1Cl)c1cccs1
inactive

---

Molecular target: Short transient receptor potential channel 6 (Mus musculus)
Experiment: mouse TRPC6 channel inhibitors, primary screen, cell-based, HEK293, membrane potential dye (AID 2553)
Conditions: ACh-evoked depolarization, at 10 µM
The campaign covered roughly 310,000 compounds. About 3,300 (1.1%) were called active.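 Rule for the calls: active = B-score under library mean minus 3 SD, initial fluorescence not abnormally high, positive integrated signal ratio; inactive = the rest.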 Many of the other results were omitted from the sample, so actives are more common in it than they were.
Returns: one label drawn from Y for active, N for inactive

Example results:
CC(=O)c1ccc(N2Cc3ccccc3C2)cc1	N
CC(C)[C@@H]1COC(c2cccc(C3=N[C@H](C(C)C)CO3)c2)=N1	N

Moving on to another compound below.
Which result was noted for this compound in the test: Cc1ccc2nc(C)c3c(c2c1)N(c1ccccc1)CC3
Y
